Origin of measurements: patent US20160257697A1

# System: HCV replicon 1AY93H
# Assay procedure: microbe, parasite or virus in culture
# Assay type: cell-based, Hepatitis C virus (HCV)
# Stated conditions: read-out: 1A Y93H IC50; HCV replicon 1A Y93H; Replicon Assay A
pIC50: −log10 of the molar value.
# pIC50 per entry
Experimental readout: pIC50

compound="COC(=O)N[C@H](C(=O)N1CCC[C@H]1c1ncc(-c2cc(F)c3c(c2)OC(c2cc4ccccc4s2)n2c-3cc3cc(-c4cnc([C@@H]5C[C@H]6C[C@H]6N5C(=O)[C@@H](NC(=O)OC)C(C)C)[nH]4)ccc32)[nH]1)C(C)C (single isomer, unassigned) [Compound 615]" assay_value=10.35
compound="COC(=O)NC(C(=O)N1[C@@H]2C[C@@H]2C[C@H]1c1ncc(-c2ccc3c(c2)cc2n3C(c3cc4c(s3)CCC4)Oc3cc(-c4cnc([C@@H]5CCCN5C(=O)[C@@H](NC(=O)OC)C(C)C)[nH]4)cc(F)c3-2)[nH]1)C(C)C (single isomer, unassigned) [Compound 659]" assay_value=10.84
compound="COC(=O)NC(C(=O)N1[C@@H]2C[C@@H]2C[C@H]1c1ncc(-c2ccc3c(c2)cc2n3C(c3ccc(CC4CC4)s3)Oc3cc(-c4cnc([C@@H]5CCCN5C(=O)[C@@H](NC(=O)OC)C(C)C)[nH]4)cc(F)c3-2)[nH]1)C1CCOC(C)(C)C1 (single isomer, unassigned) [Compound 418]" assay_value=10.03
compound="COC(=O)N[C@H](C(=O)N1CCC[C@H]1c1ncc(-c2cc(C)c3c(c2)OC(c2ccc(C4CC4)s2)n2c-3cc3cc(-c4cnc([C@@H]5CCCN5C(=O)[C@@H](NC(=O)OC)C(C)C)[nH]4)ccc32)[nH]1)C(C)C (single isomer, unassigned) [Compound 751]" assay_value=9.29
